Test system: HCC-4006 (human lung carcinoma cell line)
Test: Cytotoxicity assay (CellTiter-Glo), HCC-4006
Type: cell-based
Details: Table VA, 72 hours or 6 days
Where a SMILES comes first, the peptide text is derived from it. [ ]: non-standard residue; d: D form. The star is where a group is joined. Dolaproine = CO[C@@H]([C@@H]1CCCN1)[C@@H](C)C(=O)O; Dil = CC[C@H](C)[C@H](NC)[C@@H](CC(=O)O)OC; NMe2Val = CC(C)[C@@H](C(=O)*)N(C)C; NH(3-hydroxypropyl) = OCCCN*
readout: IC50 (pM)
Give your result in pM as a bare value.

Task: Provide only the value of recorded IC50 for CC[C@H](C)[C@@H]([C@@H](CC(=O)N1CCC[C@H]1[C@H](OC)[C@@H](C)C(=O)N[C@@H](Cc1ccccc1)C(=O)NCCCO)OC)N(C)C(=O)[C@@H](NC(=O)[C@H](C(C)C)N(C)C)C(C)C [AF-HPA, Auristatin F-hydroxypropylamide] (NMe2Val-V[Dil][Dolaproine]F-{NH(3-hydroxypropyl)})
Output: 680
